target: Bromodomain-containing protein 3 (Homo sapiens, UniProt Q15059); test: Binding affinity to human partial length BRD3 bromodomain 1/2 (P24 to P416 residues) expressed in bacterial expression system by BROMOscan assay
Sequence (Q15059 whole entry, the tested form may be a part): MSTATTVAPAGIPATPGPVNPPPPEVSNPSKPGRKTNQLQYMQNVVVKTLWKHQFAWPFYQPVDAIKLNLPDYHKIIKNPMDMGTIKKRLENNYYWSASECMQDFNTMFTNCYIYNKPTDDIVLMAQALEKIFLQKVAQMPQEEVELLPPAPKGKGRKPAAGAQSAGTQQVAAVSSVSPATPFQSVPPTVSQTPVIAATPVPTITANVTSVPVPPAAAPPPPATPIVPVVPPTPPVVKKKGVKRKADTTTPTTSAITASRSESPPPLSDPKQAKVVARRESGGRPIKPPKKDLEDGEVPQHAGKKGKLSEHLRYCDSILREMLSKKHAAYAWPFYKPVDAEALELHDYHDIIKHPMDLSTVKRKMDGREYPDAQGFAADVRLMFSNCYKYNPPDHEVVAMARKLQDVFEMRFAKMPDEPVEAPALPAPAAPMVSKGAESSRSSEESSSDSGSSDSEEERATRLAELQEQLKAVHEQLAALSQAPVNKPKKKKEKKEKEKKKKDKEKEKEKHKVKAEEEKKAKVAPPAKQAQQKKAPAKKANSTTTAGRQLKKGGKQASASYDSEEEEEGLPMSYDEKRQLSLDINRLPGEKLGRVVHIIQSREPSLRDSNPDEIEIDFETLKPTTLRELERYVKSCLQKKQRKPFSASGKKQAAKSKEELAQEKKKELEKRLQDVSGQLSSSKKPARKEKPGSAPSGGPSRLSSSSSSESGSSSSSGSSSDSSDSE
measurement_type: Kd (nM)
Report only the number, with the unit nM understood.

Short answer for "COc1cc2c(cc1-c1c(C)noc1C)[nH]c1nc(C)nc(-c3ccnc4ccccc34)c12" : Kd was 0.73

----------
molecular target: Bromodomain-containing protein 4 (Homo sapiens); assay: Binding affinity to recombinant human BRD4 bromodomain 1 (44 to 168 residues) by BROMOscan assay
measurement_type: pKd
Lab note: report pKd as minus log10 of the concentration in molar units, number only.

Short answer for "COc1cc2c(cc1-c1c(C)noc1C)[nH]c1nc(C)nc(-c3ccnc4ccccc34)c12" : pKd was 8.08

----------
experiment: Half life in SCID mouse at 25 mg/kg, po by LC/MS method; format: ADME, organism-based; details: in vivo
measurement_type: half-life (h)
Report only the number, with the unit h understood.

Short answer for "COc1cc2c(cc1-c1c(C)noc1C)[nH]c1nc(C)nc(-c3ccnc4ccccc34)c12" : half-life was 1.6

----------
assay: Half life in human liver microsomes at 1 uM by LC/MS method; assay type: ADME, microsome
Kindly state t1/2 for each of the entries shown.
Report only the number, with the unit min understood.

Short answer for "COc1cc2c(cc1-c1c(C)noc1C)[nH]c1ncnc(-c3c(C)[nH]c4ccccc34)c12" : t1/2 was 8

Short answer for "COc1cc2c(cc1-c1c(C)noc1C)[nH]c1nc(C)nc(-c3c(C)[nH]c4ccccc34)c12" : t1/2 was 9

----------
molecular target: CREB-binding protein (Homo sapiens, UniProt Q92793); test: Binding affinity to human partial length CREBBP (R1081 to G1197 residues) expressed in bacterial expression system by BROMOscan assay
Sequence (Q92793 whole entry, the tested form may be a part): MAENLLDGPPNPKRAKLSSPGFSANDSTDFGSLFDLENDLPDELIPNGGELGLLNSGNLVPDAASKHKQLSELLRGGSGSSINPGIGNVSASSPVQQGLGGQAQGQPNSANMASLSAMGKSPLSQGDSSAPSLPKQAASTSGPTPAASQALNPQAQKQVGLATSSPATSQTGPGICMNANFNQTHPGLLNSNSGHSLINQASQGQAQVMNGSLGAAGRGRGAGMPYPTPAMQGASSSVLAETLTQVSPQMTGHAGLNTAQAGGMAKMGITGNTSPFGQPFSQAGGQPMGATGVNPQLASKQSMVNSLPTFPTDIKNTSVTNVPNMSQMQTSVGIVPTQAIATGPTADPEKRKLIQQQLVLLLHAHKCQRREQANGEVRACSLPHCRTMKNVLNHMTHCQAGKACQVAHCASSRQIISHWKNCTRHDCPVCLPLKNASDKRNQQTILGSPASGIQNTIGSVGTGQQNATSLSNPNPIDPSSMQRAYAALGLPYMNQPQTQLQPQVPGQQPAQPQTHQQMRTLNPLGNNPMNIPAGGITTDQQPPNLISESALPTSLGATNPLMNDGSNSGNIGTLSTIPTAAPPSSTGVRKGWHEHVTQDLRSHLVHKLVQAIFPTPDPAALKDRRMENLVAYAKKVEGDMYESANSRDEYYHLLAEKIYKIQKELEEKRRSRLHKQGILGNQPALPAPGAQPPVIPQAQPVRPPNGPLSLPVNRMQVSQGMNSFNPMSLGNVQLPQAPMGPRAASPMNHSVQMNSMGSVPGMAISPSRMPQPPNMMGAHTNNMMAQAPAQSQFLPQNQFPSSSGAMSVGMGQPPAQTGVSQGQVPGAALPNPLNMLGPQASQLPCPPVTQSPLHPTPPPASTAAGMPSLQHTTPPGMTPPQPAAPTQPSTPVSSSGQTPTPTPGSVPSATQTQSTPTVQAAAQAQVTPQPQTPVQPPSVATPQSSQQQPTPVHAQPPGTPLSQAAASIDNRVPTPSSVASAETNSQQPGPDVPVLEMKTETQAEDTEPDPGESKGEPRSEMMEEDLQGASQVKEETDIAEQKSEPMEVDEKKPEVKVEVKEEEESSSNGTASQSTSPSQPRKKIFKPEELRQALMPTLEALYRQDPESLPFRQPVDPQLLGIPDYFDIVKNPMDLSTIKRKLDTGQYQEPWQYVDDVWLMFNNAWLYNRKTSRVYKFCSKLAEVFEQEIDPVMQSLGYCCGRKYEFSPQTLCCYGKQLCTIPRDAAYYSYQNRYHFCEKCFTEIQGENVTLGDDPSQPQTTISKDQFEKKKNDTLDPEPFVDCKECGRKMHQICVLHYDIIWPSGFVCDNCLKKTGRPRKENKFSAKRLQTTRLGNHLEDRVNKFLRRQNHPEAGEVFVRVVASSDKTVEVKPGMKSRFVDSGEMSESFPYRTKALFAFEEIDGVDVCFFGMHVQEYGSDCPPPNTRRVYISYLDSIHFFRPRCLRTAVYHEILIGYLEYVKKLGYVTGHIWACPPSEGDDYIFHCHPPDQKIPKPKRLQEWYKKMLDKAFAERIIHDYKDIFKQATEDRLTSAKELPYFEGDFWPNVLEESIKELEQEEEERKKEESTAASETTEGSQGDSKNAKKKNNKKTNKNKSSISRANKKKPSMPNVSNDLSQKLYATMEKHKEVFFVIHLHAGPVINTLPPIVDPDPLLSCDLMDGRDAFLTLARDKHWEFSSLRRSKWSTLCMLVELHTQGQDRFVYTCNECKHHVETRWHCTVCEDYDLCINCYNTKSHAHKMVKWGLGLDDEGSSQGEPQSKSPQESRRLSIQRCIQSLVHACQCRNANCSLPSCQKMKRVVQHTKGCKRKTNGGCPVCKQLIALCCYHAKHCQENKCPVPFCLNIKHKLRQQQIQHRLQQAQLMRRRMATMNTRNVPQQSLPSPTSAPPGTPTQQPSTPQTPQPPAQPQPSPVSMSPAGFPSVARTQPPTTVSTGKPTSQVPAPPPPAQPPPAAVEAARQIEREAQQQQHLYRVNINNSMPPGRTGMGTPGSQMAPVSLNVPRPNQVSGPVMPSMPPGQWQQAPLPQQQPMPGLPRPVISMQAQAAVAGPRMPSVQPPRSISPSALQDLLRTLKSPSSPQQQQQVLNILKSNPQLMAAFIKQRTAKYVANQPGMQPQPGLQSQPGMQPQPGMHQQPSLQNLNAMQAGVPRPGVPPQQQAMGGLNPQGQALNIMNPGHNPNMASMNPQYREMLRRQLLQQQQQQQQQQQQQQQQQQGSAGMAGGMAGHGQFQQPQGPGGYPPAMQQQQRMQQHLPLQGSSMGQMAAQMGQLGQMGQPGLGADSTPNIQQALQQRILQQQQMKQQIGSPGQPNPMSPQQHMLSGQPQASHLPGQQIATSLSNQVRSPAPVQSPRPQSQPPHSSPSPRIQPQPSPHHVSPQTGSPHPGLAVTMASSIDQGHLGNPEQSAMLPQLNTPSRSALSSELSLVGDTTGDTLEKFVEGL
measurement_type: Kd (nM)
Report only the number, with the unit nM understood.

Short answer for "COc1cc2c(cc1-c1c(C)noc1C)[nH]c1nc(C)nc(-c3ccnc4ccccc34)c12" : Kd was 520

----------
target: Bromodomain-containing protein 4 (Homo sapiens); test: Inhibition of FAM-labeled ZBA248 binding to recombinant human N-terminal His6-tagged BRD4 bromodomain 1 (44 to 168 residues) expressed in Rosetta2 DE3 cells after 30 mins by Flourescence polarization assay; format: biochemical
pKi: −log10 of the molar value.
Decision: pKi compared against 7; not below it gives TRUE, below it gives FALSE.

Query :: Item "COc1cc2c(cc1-c1c(C)noc1C)[nH]c1ncnc(Cl)c12" with pKi of 7 or above?
Result :: FALSE

Query :: Item "COc1cc2c(cc1-c1c(C)noc1C)[nH]c1ncnc(-c3c[nH]c4ccccc34)c12" with pKi of 7 or above?
Result :: TRUE

Query :: Item "COc1cc2c(cc1-c1c(C)noc1C)[nH]c1ncnc(N[C@H](C)c3ccccn3)c12" with pKi of 7 or above?
Result :: TRUE

Query :: Item "COc1cc2c(cc1-c1c(C)noc1C)[nH]c1nc(C)nc(-c3cccc4ncccc34)c12" with pKi of 7 or above?
Result :: TRUE

Query :: Item "COc1cc2c(cc1-c1c(C)noc1C)[nH]c1ncnc(-c3cc[nH]c3)c12" with pKi of 7 or above?
Result :: TRUE

Query :: Item "COc1cc2c(cc1-c1c(C)noc1C)[nH]c1ncnc(-c3c(C)nn(C)c3C)c12" with pKi of 7 or above?
Result :: TRUE

Query :: Item "COc1cc2c(cc1-c1c(C)noc1C)[nH]c1ncnc(-c3c(C)noc3C)c12" with pKi of 7 or above?
Result :: TRUE

Query :: Item "COc1cc2c(cc1-c1c(C)noc1C)[nH]c1nc(C)nc(-c3c(C)[nH]c4ccccc34)c12" with pKi of 7 or above?
Result :: TRUE

Query :: Item "COc1cc2c(cc1-c1c(C)noc1C)[nH]c1nc(C)nc(-c3cc(C)nc4ccccc34)c12" with pKi of 7 or above?
Result :: TRUE

Query :: Item "COc1cc2c(cc1-c1c(C)noc1C)[nH]c1ncnc(-n3ccnc3)c12" with pKi of 7 or above?
Result :: FALSE

Query :: Item "COc1cc(-c2nc(C)nc3[nH]c4cc(-c5c(C)noc5C)c(OC)cc4c23)c2ccccc2n1" with pKi of 7 or above?
Result :: TRUE

Query :: Item "COc1cc2c(cc1-c1c(C)noc1C)[nH]c1ncnc(-c3cnoc3)c12" with pKi of 7 or above?
Result :: FALSE

Query :: Item "COc1cc2c(cc1-c1c(C)noc1C)[nH]c1ncnc(-c3cnn4ccccc34)c12" with pKi of 7 or above?
Result :: TRUE

Query :: Item "COc1cc2c(cc1-c1c(C)noc1C)[nH]c1nc(C)nc(-c3ccnc4ccccc34)c12" with pKi of 7 or above?
Result :: TRUE

Query :: Item "COc1cc2c(cc1-c1c(C)noc1C)[nH]c1ncnc(-c3ccoc3)c12" with pKi of 7 or above?
Result :: TRUE

Query :: Item "COc1cc2c(cc1-c1c(C)noc1C)[nH]c1ncnc(-c3c(C)n[nH]c3C)c12" with pKi of 7 or above?
Result :: TRUE

Query :: Item "COc1cc2c(cc1-c1c(C)noc1C)[nH]c1ncnc(-c3c(C)[nH]c4ccccc34)c12" with pKi of 7 or above?
Result :: TRUE
